These entries and their values trace back to ChEMBL document CHEMBL1144173.

Molecular target: B1 bradykinin receptor (Macaca fascicularis, UniProt Q3BCU0)
Sequence (Q3BCU0 whole entry): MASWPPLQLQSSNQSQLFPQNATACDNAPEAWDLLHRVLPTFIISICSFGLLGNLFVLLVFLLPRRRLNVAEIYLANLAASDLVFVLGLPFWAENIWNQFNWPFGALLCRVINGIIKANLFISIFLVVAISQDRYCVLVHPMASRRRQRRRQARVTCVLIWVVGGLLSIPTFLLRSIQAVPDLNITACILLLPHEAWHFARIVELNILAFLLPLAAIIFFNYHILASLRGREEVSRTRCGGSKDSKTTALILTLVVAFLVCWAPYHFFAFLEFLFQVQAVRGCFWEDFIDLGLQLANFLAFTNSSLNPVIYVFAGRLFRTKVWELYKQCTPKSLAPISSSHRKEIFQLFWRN
Test: Antagonist activity at Cynomolgus monkey bradykinin B1 receptor expressed in CHO cells assessed as calcium transient by FLIPR assay
Assay type: functional, cell-based
endpoint: IC50 (nM)

Some compounds with known IC50 results, for comparison:
CN(Cc1ccc(C2=NCCN2C)cc1)C(=O)CNC(=O)c1nc2ccccc2n1Cc1ccccc1
14
CN1CCC(N2CCN(C(=O)[C@@H]3CCCN3C(=O)c3nc4ccccc4n3Cc3ccccc3)CC2)CC1
884
CN(Cc1ccc(C2=NCCN2)cc1)C(=O)CCNC(=O)c1nc2ccccc2n1Cc1ccccc1
54
O=C(NCCC(=O)N1CCC2(CCOCC2)CC1)c1nc2ccccc2n1Cc1ccccc1
1990

I: CN1CCC(N2CCN(C(=O)CNC(=O)c3nc4ccccc4n3Cc3ccccc3)CC2)CC1
II: O=C(CCNC(=O)c1nc2ccccc2n1Cc1ccccc1)Nc1ccc(C2=NCCN2)nc1
Input line: Please state the entry with greater IC50 among I and II . Mark your selection by writing its label.
Output line: I

A: CN1CCC(N2CCN(C(=O)CCNC(=O)c3nc4ccccc4n3Cc3ccccc3)CC2)CC1
B: O=C(NCCC(=O)N1CCN(c2ccncc2)CC1)c1nc2ccccc2n1Cc1ccccc1
Input line: Hello, I am sorting some records. Could you say if A or B has the smaller IC50 value? Mark your selection by writing its label.
Output line: A

I: CN1CCC(N2CCN(C(=O)[C@H]3CCCN3C(=O)c3nc4ccccc4n3Cc3ccccc3)CC2)CC1
II: O=C(CCNC(=O)c1nc2ccccc2n1Cc1ccccc1)Nc1ccc2nc[nH]c2c1
III: CCC(NC(=O)c1nc2ccccc2n1Cc1ccccc1)C(=O)N1CCN(C2CCN(C)CC2)CC1 (centres undefined)
Input line: Order the records by IC50, with each subsequent value no larger than the one before. # the answer lists labels in the order requested
Output line: I, III, II

* * *

Biological target: B1 bradykinin receptor (Macaca fascicularis)
Test: Antagonist activity at Cynomolgus monkey bradykinin B1 receptor expressed in CHO cells assessed as calcium transient by FLIPR assay
endpoint: IC50 (µM)

CCCN(CC(=O)N1CCN(C2CCN(C)CC2)CC1)C(=O)c1nc2ccccc2n1Cc1ccccc1
0.018
CN1CCC(N2CCN(C(=O)CN(C)C(=O)c3nc4ccccc4n3Cc3ccccc3)CC2)CC1
0.268

a: CCCN(CC(=O)N1CCN(c2ccncc2)CC1)C(=O)c1nc2ccccc2n1Cc1ccccc1
b: CN(Cc1ccc(-n2ccnc2)cc1)C(=O)CNC(=O)c1nc2ccccc2n1Cc1ccccc1
c: CN(Cc1ccc(-c2cc[nH]n2)cc1)C(=O)CNC(=O)c1nc2ccccc2n1Cc1ccccc1
d: CN(Cc1ccc(C2=NCCN2)cc1)C(=O)c1nc2ccccc2n1Cc1ccccc1
Input line: rank_up(items): orders items by reported IC50 in ascending numerical order. # the answer lists labels in the order requested
Output line: a, b, d, c
(a: 0.355 µM, b: 0.626 µM, d: 1.02 µM, c: 2.13 µM)

* * *

Tested on: MDCK
Assay: Ratio of permeability from basolateral to apical over apical to basolateral side of MDCK cells expressing MDR1
Type: ADME, cell-based, Canis lupus familiaris
Conditions: dog
endpoint: Ratio

CN(Cc1ccc(C#N)cc1)C(=O)CNC(=O)c1nc2ccccc2n1Cc1ccccc1
3
O=C(CCNC(=O)c1nc2ccccc2n1Cc1ccccc1)Nc1ccc(C2=NCCN2)nc1
42

1: CCN(CC(=O)N1CCN(C2CCN(C)CC2)CC1)C(=O)c1nc2ccccc2n1Cc1ccccc1
2: CN(Cc1ccc(C2=NCCN2)cc1)C(=O)CNC(=O)c1nc2ccccc2n1Cc1ccccc1
Input line: Please state the entry with greater Ratio among 1 and 2 . Mark your selection by writing its label.
Output line: 1
(1: 55, 2: 23)
